Measured values drawn from PubChem BioAssay (NCI) for this set.

System: HCT-116 colon
Test: NCI tumour cell line growth inhibition, 48 h
Collected TGI values appear next to each entry.
PROPERTY: TGI

MOLECULE | PROPERTY | RESULT
CSC(=N/N=C(\C)c1ccc(S(=O)(=O)N(C)c2ccccc2)cc1)SC | TGI | > 100 µM
CC1CC2OC(=N)C1(C#N)C2(C#N)C#N (stereo not drawn) | TGI | 43.3 µM
CC1=CCC(=O)[C@]2(C)C(CC(=O)O)[C@]3(C)C4=C(C)C(c5ccoc5)C[C@@H]4O[C@@H]3[C@H](O)[C@@H]12 (stereo partly drawn) | TGI | > 100 µM
C[C@@H]1CC[C@H]2C(CN(C)CC3=C(C(F)(F)F)O[C@@H]4O[C@@]5(C)CC[C@H]6[C@H](C)CC[C@@H]3[C@@]46OO5)=C(C(F)(F)F)O[C@@H]3O[C@@]4(C)CC[C@@H]1[C@]32OO4 | TGI | 32.9 µM
O=C1CCc2c(sc3ncnc(Nc4cccc(Br)c4)c23)C1 | TGI | 11.7 µM
Cc1nc(=O)n2c(c1C(=O)Nc1ccc(Cl)cc1)NCCC2 | TGI | > 100 µM
O=C(Nc1ccc(Oc2cccc(Cl)c2)c(Cl)c1)c1cccnc1 | TGI | > 50 µM
O=C(CN1CCN(c2cc3c(cc2F)c(=O)c(C(=O)O)cn3C2CC2)CC1)Nc1ccc(C(=O)/C=C/c2ccccc2)cc1 | TGI | 2.68 µM
